assay: Fluorescence titration curves against sugar (dissociation constant), D-glucose; format: binding; conditions: compound 6; phosphate buffer/methanol (2:1 v/v) at pH 7.0; read-out: Dissociation constant (KD) for glucose
outcome measure: pKd
Quick note: pKd means taking -log10 of the concentration in moles per liter.

q: Fill in reported pKd for this entry: CN(C)c1ccc(-c2cnc(-c3ccc(B(O)O)cc3)o2)cc1
a: 1.43

====

Each entry below carries its reported pKd.
Assay: Fluorescence titration curves against sugar (dissociation constant), D-fructose
Assay type: binding
Settings: stilbenes; pH 8.0; 33.3% methanol; read-out: KD D-fructose
Description: Stilbene-4-boronic acid (STBA), 4′-cyanostilbene-4-boronic acid (CSTBA), 4′-methoxystilbene-4-boronic acid (MSTBA) and 4′-(dimethylamino)stilbene-4-boronic acid (DSTBA) were synthesized by the Wittig reaction between the para-substituted benzaldehydes and the para-boronic acid derivative of the benzyltriphenylphosphonium bromide. […] Absorption spectrawere recorded with a Cary 50 UV-Vis spectrophotometer from Varian. Emission spectra were recorded with a Varian Eclipse spectrofluorometer from Varian. […]
Quick note: pKd means taking -log10 of the concentration in moles per liter.

Answered examples (3):
>>> numeric_readout("COc1ccc(/C=C/c2ccc(B(O)O)cc2)cc1")
3.00
>>> numeric_readout("CN(C)c1ccc(/C=C/c2ccc(B(O)O)cc2)cc1")
2.60
>>> numeric_readout("N#Cc1ccc(/C=C/c2ccc(B(O)O)cc2)cc1")
3.19

Then this compound:
q: Fill in reported pKd for this entry: OB(O)c1ccc(/C=C/c2ccccc2)cc1
a: 2.47
